# credit: patent US20250179051A1

Could you please report measured percentage damage caused to the plant, AMAPA for the items listed next?
Test system: Amaranthus palmeri (AMAPA)
Assay: Pre-emergence herbicide glasshouse test
Format: in vivo
Details: 250 g/ha, evaluated after 13 days, five-point scale

Sample answers from the record:
1. FC(F)(F)c1nc(CCC=NOCC2CC2)c2c(Oc3ncc(Cl)cn3)cccc2n1 [Compound 1.068]    5 (5=81-100%)
2. FC(F)(F)c1nc(-c2ncccn2)c2c(Oc3ncc(Cl)cn3)cccc2n1 [Compound 1.069]    1 (1=0-20%)
3. FC(F)(F)c1nc(CCC2CCCCC2)c2c(Oc3ncc(Cl)cn3)cccc2n1 [Compound 1.045]    5 (5=81-100%)
4. Cc1cnc(Oc2cccc3nc(C(F)(F)F)nc(CCC4CC4)c23)nc1 [Compound 1.015]    5 (5=81-100%)
5. CON=CCc1nc(C(F)(F)F)nc2cccc(Oc3ncc(Cl)cn3)c12 [Compound 1.007]    1 (1=0-20%)
6. OCCCc1nc(C(F)(F)F)nc2cccc(Oc3ncc(Cl)cn3)c12 [Compound 1.039]    2 (2=21-40%)

Field: percentage damage caused to the plant, AMAPA. Fill in for each record below.
1. CCNC(=O)CCc1nc(C(F)(F)F)nc2cccc(Oc3ncc(Cl)cn3)c12 [Compound 1.012]
2. O=C(c1ccc(Cl)cn1)c1nc(C(F)(F)F)nc2cccc(Oc3ncc(Cl)cn3)c12 [Compound 1.070]

1: 2 (2=21-40%); 2: 5 (5=81-100%)
